Target: Protein arginine N-methyltransferase 5 (Homo sapiens, UniProt O14744)
Sequence (O14744 whole entry): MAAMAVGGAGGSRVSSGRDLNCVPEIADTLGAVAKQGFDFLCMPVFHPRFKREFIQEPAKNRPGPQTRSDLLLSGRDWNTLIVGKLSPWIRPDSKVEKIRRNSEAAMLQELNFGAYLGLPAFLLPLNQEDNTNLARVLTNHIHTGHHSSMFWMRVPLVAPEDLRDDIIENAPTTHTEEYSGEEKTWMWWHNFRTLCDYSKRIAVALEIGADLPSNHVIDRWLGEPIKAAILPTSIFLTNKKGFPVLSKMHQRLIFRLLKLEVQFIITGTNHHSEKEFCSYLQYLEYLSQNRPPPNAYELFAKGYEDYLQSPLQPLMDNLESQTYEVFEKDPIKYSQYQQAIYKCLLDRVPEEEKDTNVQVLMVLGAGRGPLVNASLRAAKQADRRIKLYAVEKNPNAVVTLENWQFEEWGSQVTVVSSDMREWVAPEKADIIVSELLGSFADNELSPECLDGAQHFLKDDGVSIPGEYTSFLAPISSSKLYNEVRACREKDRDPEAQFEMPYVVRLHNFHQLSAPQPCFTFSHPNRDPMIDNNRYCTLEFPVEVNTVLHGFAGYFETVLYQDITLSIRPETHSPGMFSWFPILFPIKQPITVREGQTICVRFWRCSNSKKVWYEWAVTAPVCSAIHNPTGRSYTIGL
Test: Inhibition of PRMT5 in human Z138 cells assessed as decrease in di-methyl arginine levels after 96 hrs by Western blot method
TEST READOUT: EC50

| COMPOUND | TEST READOUT | RECORDED RESULT |
| --- | --- | --- |
| O=C1CN(c2ccccc2Cl)CCN1CC(O)CN1CCc2ccccc2C1 (stereo unspecified) | EC50 | 101 to 1000 nM |
| Cc1ccccc1OCC(=O)NCC(O)CN1CCc2ccccc2C1 (stereo unspecified) | EC50 | 101 to 1000 nM |
| Cc1ccc(F)c(-c2cccc(OCC(O)CN3CCc4ccccc4C3)c2)c1 (stereo unspecified) | EC50 | 1000 to 10000 nM |
| O=C(NCC(O)CN1CCc2ccccc2C1)c1cccc(N2CCNCC2)c1 (stereo unspecified) | EC50 | 101 to 1000 nM |
| O=C1CN(c2cccc(Cl)c2)CCN1CC(O)CN1CCc2ccccc2C1 (stereo unspecified) | EC50 | 1000 to 10000 nM |

Name the reported EC50 value associated with the compound NC(=O)c1cccc(OCC(=O)NCC(O)CN2CCc3ccccc3C2)c1 (stereo unspecified)
101 to 1000 nM

Tell me the measured EC50 of O=C(COc1ccccc1-c1cc[nH]n1)NCC(O)CN1CCc2ccccc2C1 (stereo unspecified) , please.
< 100 nM

Record request: EC50 value, item `O=C(NC[C@H](O)CN1CCc2ccccc2C1)Nc1ccccc1`
101 to 1000 nM

// query EC50 value for entry O=C1CN(c2cncc(N3CCOCC3)c2)CCN1CC(O)CN1CCc2ccccc2C1 (stereo unspecified)
101 to 1000 nM

Which EC50 reading was recorded for the compound CS(=O)(=O)N1CCc2c(cccc2OCC(=O)NCC(O)CN2CCc3ccccc3C2)C1 (stereo unspecified) ?
< 100 nM

Request the reported EC50 associated with O=C(NCC(O)CN1CCc2ccccc2C1)c1cccc(NC2CCOCC2)c1 (stereo unspecified)
< 100 nM
